Answer each item with its documented pIC50.
- SYSTEM_TESTED: Monoglyceride lipase (Rattus norvegicus, UniProt Q8R431, C201A)
- ASSAY_TEXT: Inhibition of recombinant rat MGL C201A mutant expressed in human HeLa cells using 2-oleoylglycerol as substrate preincubated for 10 mins followed by substrate addition and measured after 10 mins by LC-MS analysis
Give bare numbers, as −log10 of the molar value.

# example entries with known answers
INPUT_SMILES: O=c1c2ccccc2sn1NCCCCCCNn1sc2ccccc2c1=O
pIC50: 6.94
//
INPUT_SMILES: O=c1c2ccccc2sn1NCc1ccccc1
pIC50: 7.26

Ask | # query: pIC50 of entry O=c1c2ccccc2sn1NCCCCCNn1sc2ccccc2c1=O
Reply | 6.64

----------
- ASSAY_TEXT: Tmax in C57BL6 mouse brain at 10 mg/kg, ip by LC-MS/MS analysis
- Type: ADME, organism-based
READOUT_LABEL: Tmax (min)
Answers are plain numbers, in min.

Ask | # query: Tmax of entry O=c1c2ccccc2sn1CCc1ccccc1
Reply | 15

----------
- ASSAY_TEXT: Tmax in C57BL6 mouse plasma at 10 mg/kg, ip by LC-MS/MS analysis
- Type: ADME, organism-based
READOUT_LABEL: Tmax (min)
One number for each entry, in min.

Ask | # query: Tmax of entry O=c1c2ccccc2sn1CCc1ccccc1
Reply | 15

----------
- SYSTEM_TESTED: Monoglyceride lipase (Rattus norvegicus, UniProt Q8R431, C201A/C208A)
- ASSAY_TEXT: Inhibition of recombinant rat MGL C201A/C208A mutant expressed in human HeLa cells using 2-oleoylglycerol as substrate preincubated for 10 mins followed by substrate addition and measured after 10 mins by LC-MS analysis
READOUT_LABEL: IC50 (µM)
Numbers only, in µM.

# example entries with known answers
INPUT_SMILES: O=c1c2ccccc2sn1NCCCCCCNn1sc2ccccc2c1=O
IC50 [µM]: 2.08
//
INPUT_SMILES: O=c1c2ccccc2sn1NCc1ccccc1
IC50 [µM]: 0.782

Now for a further compound.
Ask | # query: IC50 of entry O=c1c2ccccc2sn1NCCCCCNn1sc2ccccc2c1=O
Reply | 1.46

----------
- SYSTEM_TESTED: Monoglyceride lipase (Rattus norvegicus, UniProt Q8R431, C208A)
- ASSAY_TEXT: Inhibition of recombinant rat MGL C208A mutant expressed in human HeLa cells using 2-oleoylglycerol as substrate preincubated for 10 mins followed by substrate addition and measured after 10 mins by LC-MS analysis
Answer each item with its documented pIC50.
One number for each entry, as −log10 of the molar value.

INPUT_SMILES: O=c1c2ccccc2sn1NCCCCCNn1sc2ccccc2c1=O
READOUT_NUMBER: 6.66
//
INPUT_SMILES: O=c1c2ccccc2sn1NCc1ccccc1
READOUT_NUMBER: 7.35

Now for a further compound.
Ask | # query: pIC50 of entry O=c1c2ccccc2sn1NCCCCCCNn1sc2ccccc2c1=O
Reply | 7.08

----------
- SYSTEM_TESTED: Monoglyceride lipase (Rattus norvegicus, UniProt Q8R431)
- Sequence (Q8R431 whole entry): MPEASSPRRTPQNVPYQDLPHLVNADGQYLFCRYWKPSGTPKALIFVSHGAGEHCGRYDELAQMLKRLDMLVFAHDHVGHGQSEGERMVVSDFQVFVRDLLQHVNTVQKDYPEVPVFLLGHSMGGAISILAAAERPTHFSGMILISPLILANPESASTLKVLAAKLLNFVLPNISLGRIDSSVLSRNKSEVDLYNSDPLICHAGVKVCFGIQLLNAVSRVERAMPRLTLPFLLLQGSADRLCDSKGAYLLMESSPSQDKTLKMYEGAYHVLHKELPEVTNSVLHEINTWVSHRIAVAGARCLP
- ASSAY_TEXT: Inhibition of recombinant rat MGL expressed in human HeLa cells using 2-oleoylglycerol as substrate preincubated for 10 mins followed by substrate addition and measured after 10 mins by LC-MS analysis
IC50 under 200 nM gets yes, anything at or over 200 nM gets no.

Completed entries (count: 10):
INPUT_SMILES: Cc1cccc2c(=O)n(CCc3ccccc3)sc12
CLASS_NAME: no
--
INPUT_SMILES: COC(=O)c1ccc(CNn2sc3ccccc3c2=O)cc1
CLASS_NAME: yes
--
INPUT_SMILES: O=c1c2ccccc2sn1CCc1ccc2ccccc2c1
CLASS_NAME: yes
--
INPUT_SMILES: O=c1c2cc([N+](=O)[O-])ccc2sn1CCc1ccccc1
CLASS_NAME: yes
--
INPUT_SMILES: O=C(O)c1ccc(CNn2sc3ccccc3c2=O)cc1
CLASS_NAME: no
--
INPUT_SMILES: O=c1c2ccccc2sn1NCCCCCCNn1sc2ccccc2c1=O
CLASS_NAME: yes
--
INPUT_SMILES: O=c1c2cc(O)ccc2sn1CCc1ccccc1
CLASS_NAME: yes
--
INPUT_SMILES: O=c1c2ccccc2sn1NCCCCCNn1sc2ccccc2c1=O
CLASS_NAME: yes
--
INPUT_SMILES: O=c1[nH]sc2ccccc12
CLASS_NAME: no
--
INPUT_SMILES: O=c1c2ccc([N+](=O)[O-])cc2sn1CCc1ccccc1
CLASS_NAME: no

Ask | Does the reported IC50 of the following compound sit strictly below 200 nM? O=c1c2ccccc2sn1NCc1ccccc1
Reply | yes

Ask | Does the reported IC50 of the following compound sit strictly below 200 nM? O=c1c2ccc(O)cc2sn1CCc1ccccc1
Reply | no

Ask | Does the reported IC50 of the following compound sit strictly below 200 nM? CN(Cc1ccccc1)n1sc2ccccc2c1=O
Reply | yes

Ask | Does the reported IC50 of the following compound sit strictly below 200 nM? O=c1ccsn1CCc1ccccc1
Reply | no

Ask | Does the reported IC50 of the following compound sit strictly below 200 nM? O=c1c2ccccc2sn1NCc1ccc(-c2ccccc2)cc1
Reply | no

----------
Answer each item with its documented log10(IC50).
- SYSTEM_TESTED: Monoglyceride lipase (Rattus norvegicus)
- ASSAY_TEXT: Inhibition of recombinant rat MGL expressed in human HeLa cells using 2-oleoylglycerol as substrate preincubated for 10 mins followed by substrate addition and measured after 10 mins by LC-MS analysis
- Type: cell-based
In plain terms, each number is the log10 of measured IC50 in nM.

# example entries with known answers
INPUT_SMILES: COc1ccc2c(=O)n(CCc3ccccc3)sc2c1
log10(IC50): 2.71
--
INPUT_SMILES: O=c1c2ccccc2sn1C1CCCCC1
log10(IC50): 1.74
--
INPUT_SMILES: COc1ccc2sn(CCc3ccccc3)c(=O)c2c1
log10(IC50): 2.75

Field: log10(IC50). Fill in for each record below.
1. O=c1c2ccccc2sn1CCc1cccc2ccccc12
2. O=c1c2ccccc2sn1CCCCCCN1CCCCC1
3. Cn1sc2ccccc2c1=O

Reply |
1.34
2.29
1.77

Values were extracted from ChEMBL document CHEMBL4354821.
